Data credit: patent US20240351997A1

Here, each record is paired with measured F data.
Test: In vivo pharmacokinetic assay in rats (intravenous injection and oral administration)
Conditions: SD rats, oral administration, 5 mg/kg

{"columns": ["molecule", "F, %"],
 "data": [
  ["C[C@@H](Cc1c[nH]c(=O)c(C(F)(F)F)c1)OC(=O)N1CCN(c2ncc(C(F)(F)F)cn2)[C@@H](C)C1 [Example 93]", 77],
  ["O=C(OCCc1c[nH]c(=O)c(C(F)(F)F)c1)N1CCN(c2ncc(C(F)(F)F)cn2)CC1 [Example 3]", 47],
  ["C[C@@H](Cc1c[nH]c(=O)c(C(F)(F)F)c1)OC(=O)N1CCN(c2ncc(C(F)(F)F)cn2)CC1 (single isomer, unassigned) [Example 35]", 35],
  ["C[C@@H]1CN(c2ncc(C(F)(F)F)cn2)CCN1C(=O)OCCc1c[nH]c(=O)c(C(F)(F)F)c1 [Example 109]", 99]
]}
